Entry source: PubChem BioAssay (NCI)

- Tested on: COLO 205 colon
- PROTOCOL_NOTES: NCI-60 one-dose screen, 48 h (100 = growth as untreated, 0 = no growth, -100 = all killed)
- TEST_CONTEXT: 10 µM
About 83,000 compounds went through this panel and 20% of them were active in at least one assay; those are over-represented in the sample as a whole.
MEASURE_NAME: growth (%)
One number for each entry, in %.

Would you mind listing growth for each of the following compounds?
1. CCCCC(CC)COC(C)=O (configuration not stated)
2. COC(=O)c1[nH]c(=O)c(C#N)c(C(=O)OC)c1C(=O)c1ccccc1
3. CCOC(=O)C1=C(C)NC(=O)NC1c1cccs1 (configuration not stated)
4. O=S(=O)(O)c1ccc(Cl)c(Cl)c1
5. CCOC(=O)C(O)C(O)C(=O)OCC (configuration not stated)

[reply]
1. 100
2. 123
3. 107
4. 117
5. 106

Hi team, please reply with growth for each item in this list.
1. CCN(CC)C(=O)/C=C(/C)c1ccccc1
2. c1ccc(Cc2ccccc2)cc1
3. CCc1nn(Cc2ccccc2)c2nc(C)c(CCc3ccccc3)c(Cl)c12
4. CCCCCCCCOC(=O)c1ccccn1
5. Cc1ncc(C#N)c(N)n1
6. C1CNC(C2=NCCN2)=N1

[reply]
1: 106; 2: 125; 3: 110; 4: 106; 5: 107; 6: 114

List reported growth for each of these compounds:
1. C=CCNC(=O)c1ccc(OC)cc1
2. O=C(O)CCCCNC(=O)c1ccccc1
3. COc1cccc(O)c1O
4. O=C(Cc1ccccc1)Cc1ccccc1
5. CCCCCCCCCCCCCC(=O)Oc1ccc[nH]c1=O
6. O=c1c2ccccc2c(Br)c(Br)c2ccccc12

[reply]
1: 109; 2: 108; 3: 108; 4: 110; 5: 112; 6: 55

Provide growth for all items below, preserving their order.
1. O=[N+]([O-])c1ccc(S(=O)(=O)NN=C2CCCCC2)cc1
2. O/N=C/c1ccc(O)cc1O
3. O=C(NCCNC(=O)c1ccc(Cl)cc1Cl)c1ccc(Cl)cc1Cl
4. O=C(O)C(O)c1ccccc1 (configuration not stated)
5. O=c1cc(-c2ccccc2)nc2cc(-c3ccco3)[nH]n12

[reply]
1: 102; 2: 111; 3: 129; 4: 109; 5: 95.6

====

For each entry below, report its growth value.
- Tested on: U251 CNS
- PROTOCOL_NOTES: NCI-60 one-dose screen, 48 h (100 = growth as untreated, 0 = no growth, -100 = all killed)
- TEST_CONTEXT: 10 µM
About 83,000 compounds went through this panel and 20% of them were active in at least one assay; those are over-represented in the sample as a whole.
One number for each entry, in %.

Reference set, count: 3
COc1nc(N)nc2c1ncn2C1OC(CO)CC1O (configuration not stated)
112
Cc1ccc(S(=O)(=O)O)c(C)c1
97.1
CCC/C=C(\C)C(C)(C#N)C(=O)OCC (configuration not stated)
102

Working through the 3 molecules below one at a time, give growth for each.
1. CC1=CC(=O)c2ccccc2C1=O
2. CCOc1ccc(/C=N/N=C(N)N)cc1OCC
3. Nc1ccccc1SC(CC(=O)c1ccccc1)c1c(Cl)cccc1Cl (configuration not stated)

[reply]
[101, 103, 27]

[ask] I would be grateful if you could share the reported growth for O=S(=O)(O)C(Nc1ccccc1)c1ccccc1 (configuration not stated) .
[reply] 101

====

- Tested on: SW-620 colon
- PROTOCOL_NOTES: NCI-60 one-dose screen, 48 h
- TEST_CONTEXT: 10 µM
About 83,000 compounds went through this panel and 20% of them were active in at least one assay; those are over-represented in the sample as a whole. The source made the active and inactive calls. The calls were made as follows: active = growth percent below 10; inactive = the rest.
Write down the outcome that applies. Available outcomes: true (active), false (inactive)

CC(C)(N)COS(=O)(=O)O
false
OC1OC(COC(c2ccccc2)(c2ccccc2)c2ccccc2)C(O)C(O)C1O (stereo not drawn)
false

[ask] Could you kindly confirm the outcome this assay logged for `S=C1NCc2cncnc2N1` ?
[reply] false

[ask] # outcome recorded in this test, key = `COc1cc2cc(c1Cl)N(C)C(=O)C[C@H](OC(=O)[C@H](C)N(C)C(C)=O)[C@]1(C)O[C@H]1[C@H](C)[C@@H]1C[C@@](O)(NC(=O)O1)[C@H](OC)C=C/C=C(\C)C2`
[reply] false

[ask] Record lookup: outcome of this test for `Cc1ccccc1N=C(c1ccccc1)C1C(=O)c2ccccc2C1=O` ?
[reply] false

[ask] Write down the call the test reported for this molecule. Item: `O=C(O)CCCC(=O)O`
[reply] false

====

- Tested on: UO-31 renal
- PROTOCOL_NOTES: NCI-60 one-dose screen, 48 h (100 = growth as untreated, 0 = no growth, -100 = all killed)
- TEST_CONTEXT: 10 µM
This is part of a sample that, as a whole, favours compounds with a hit. Of some 83,000 tested, about 20% had one in any assay. The source made the active and inactive calls. The calls were made as follows: active = growth percent below 10; inactive = the rest.
MEASURE_NAME: growth

Here are 3 molecules together with their reported answers.
CCOC(=O)C1=C(C)NC(=O)NC1c1cccs1 (stereo not drawn)
87.7% (inactive)
COCCCNC(=O)c1nnn2c1nc(N)c1cc(Cl)ccc12
71.7% (inactive)
COc1ccc(C2(O)CCCCC2)cc1
97% (inactive)

// each molecule listed below needs its growth
1. COc1cc(-c2ccc(NC(=O)NC3CC3)c(OC)c2)ccc1NC(=O)NC1CC1
2. O=C1C[C@H](c2ccccc2)[C@H](c2ccccc2)C1
3. CCCCCCCCCCC1CO1 (stereo not drawn)
4. O=C1C=C(O)C(=O)C=C1O
5. CC(C)CCCC(=O)O
6. O=C(O)c1ccnc(Br)c1
7. Cc1ccc(C(O)C2CC2)cc1 (stereo not drawn)
8. COc1cc(C(=O)NC(=S)Nc2ccc3ccccc3c2)cc(OC)c1OC

[reply]
1: 46.5% (inactive); 2: 81.9% (inactive); 3: 82.2% (inactive); 4: 79.2% (inactive); 5: 95.4% (inactive); 6: 91.4% (inactive); 7: 88.5% (inactive); 8: 66.7% (inactive)

====

- Test system: SF-295 CNS
- PROTOCOL_NOTES: NCI-60 one-dose screen, 48 h (100 = growth as untreated, 0 = no growth, -100 = all killed)
- TEST_CONTEXT: 10 µM
Compounds without any hit were thinned out: in the full panel of roughly 83,000, 20% have a hit.
Hi there, I'd appreciate the recorded growth for every entry that follows.
One number for each entry, in %.

O=C(c1ccccc1)C1CCC1
104
CCCCCCCCCCCCCCCCC1CC(=O)OC1=O (configuration not stated)
99.3
CN1C(=O)CN2CCc3ccccc3C2c2cc(Cl)ccc21 (configuration not stated)
105

Please report growth for every entry that follows.
1. COc1ccccc1N=Nc1c(O)ccc2cc(S(=O)(=O)O)ccc12
2. N#CCCN(CCCN1CCOCC1)CN1C(=O)c2ccccc2C1=O
3. CC(C)(N)COS(=O)(=O)O
4. O=C(CCNNC(=O)c1ccncc1)NCc1ccccc1

[reply]
1: 94.2; 2: 98.6; 3: 101; 4: 105

====

- System: SK-MEL-5 melanoma
- PROTOCOL_NOTES: NCI-60 one-dose screen, 48 h (100 = growth as untreated, 0 = no growth, -100 = all killed)
- TEST_CONTEXT: 10 µM
- Experimental: Growth inhibition of the SK-MEL-5 human tumor cell line is measured as a screen for anti-cancer activity. Cells are grown in 96 well plates and exposed to the test compound for 48 hours. Compounds are tested at a single concentration, which is 10^-5 M for most compounds. The reported endpoint is percent growth (GI% or GIPRCNT), where numbers from 0 - 100% represent growth inhibition, and numbers from -100% - 0 represent cell death. For example, a value of 40 represents 60% growth inhibition. […]
Compounds without any hit were thinned out: in the full panel of roughly 83,000, 20% have a hit. Calls of active or inactive are those of the source. The calls were made as follows: active = growth percent below 10; inactive = the rest.
Assignment: determine reported growth for the given molecules.

Examples from the recorded data:
CC(=O)Oc1ccc(Br)cc1C(=O)O
104% (inactive)
Cc1nc2ccccc2c2nnc(SCC(=O)N(Cc3ccccc3)c3ccccc3)n12
45.1% (inactive)
CN(C)c1ccc2nc3ccc(=N)cc-3sc2c1
0.247% (active)

# return growth for each item in the list
1. CC(O)COc1ccc(-c2ccccc2)cc1 (stereo not drawn)
2. CCS(=O)(=O)c1cc(=O)[nH]c(=O)[nH]1
3. CC(=O)c1ccc(C)c(N)c1
4. COc1cc2cc(OC(C)=O)c3cc4c(cc3c2c(OC)c1OC)OCO4
5. Cc1cc(O)ccc1O
6. Nc1nc2c(c(-c3nc(N)nc4c3CCc3ccccc3-4)n1)CCc1ccccc1-2
7. CN(C)c1ccc2oc(=O)c3ccccc3c2c1
8. OCC(O)C(O)C(O)C(O)/C=N/O (stereo not drawn)

[reply]
["99.1% (inactive)", "93.2% (inactive)", "110% (inactive)", "99.5% (inactive)", "88.6% (inactive)", "99.3% (inactive)", "94.9% (inactive)", "101% (inactive)"]

Would you mind listing growth for each of the following molecules?
1. CCOC(=O)Nc1cc2c(c(N)n1)N=C(c1ccccc1)CO2
2. CCOC(=O)Nc1nn[nH]n1

[reply]
["10.2% (inactive)", "103% (inactive)"]
